Assay: Pharmacokinetic assay in mice, per oral administration
Format: in vivo
Details: male, mouse, plasma; PO 10 mg/kg, ICR mice, original compound analyzed; class symbol

| line.notation | AUC(0-t) |
| --- | --- |
| Cc1cc(C(=O)Nc2cccc(-c3cccc(NC(=O)c4cc(C)c(CNC(CO)CO)cn4)c3C)c2C)ncc1CNC(CO)CO | 500 to 2000 ng·h/mL |
| Cc1c(NC(=O)c2ccc(CNCCO)cn2)cccc1-c1cccc(NC(=O)c2ccc(CNCCO)cn2)c1C | ≤ 500 ng·h/mL |
| COc1cc(C(=O)Nc2cccc(-c3cccc(NC(=O)c4cc(OC)c(CNCCO)cn4)c3C)c2C)ncc1CNCCO | > 2000 ng·h/mL |
| COc1cc(C(=O)Nc2cccc(-c3cccc(NC(=O)c4cc(OC)c(CN5CC(C)(O)C5)cn4)c3C)c2C)ncc1CN1CC(C)(O)C1 | 500 to 2000 ng·h/mL |

###

Target: interaction between PD-1 and PD-L1 expressed on cell surfaces (Homo sapiens (Human))
Sequence (Q9NZQ7 19-290): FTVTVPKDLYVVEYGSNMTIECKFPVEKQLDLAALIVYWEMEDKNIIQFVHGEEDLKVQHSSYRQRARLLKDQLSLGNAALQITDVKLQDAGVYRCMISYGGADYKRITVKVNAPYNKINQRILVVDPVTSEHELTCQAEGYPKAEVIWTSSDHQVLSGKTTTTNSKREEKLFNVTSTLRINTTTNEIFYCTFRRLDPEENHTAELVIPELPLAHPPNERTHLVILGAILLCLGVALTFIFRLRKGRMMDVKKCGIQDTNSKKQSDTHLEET
Assay: Jurkat reporter gene cellular assay (Jurkat/NF-κB-luc/PD1 cells cocultured with Raji-PD-L1 cells, OKT-3 stimulation)
Format: cell-based
Details: NF-κB-luc reporter activation fold, 6 hrs; read-out: Cell Activity EC50
Measured EC50, listed per entry.

| line.notation | EC50 |
| --- | --- |
| Cc1cc(C(=O)Nc2cccc(-c3cccc(NC(=O)c4cc(C)c(CNC5CC5)cn4)c3C)c2C)ncc1CNC1CC1 | 0.511 µM |
| COC[C@@H](NCc1cnc(C(=O)Nc2cccc(-c3cccc(NC(=O)c4cc(OC)c(CN[C@H](COC)C(=O)O)cn4)c3C)c2C)cc1OC)C(=O)O | 0.297 µM |
| Cc1cc(C(=O)Nc2cccc(-c3cccc(NC(=O)c4cc(C)c(CN5CCCC5)cn4)c3C)c2C)ncc1CN1CCCC1 | 0.594 µM |
| COc1cc(C(=O)Nc2cccc(-c3cccc(NC(=O)c4cc(OC)c(CN[C@H]5CCOC5)cn4)c3C)c2C)ncc1CN[C@H]1CCOC1 | 0.082 µM |
| COCCNCc1cnc(C(=O)Nc2cccc(-c3cccc(NC(=O)c4cc(OC)c(CNCCOC)cn4)c3C)c2C)cc1OC | 0.111 µM |
| COC(=O)[C@H]1CCN(Cc2cnc(C(=O)Nc3cccc(-c4cccc(NC(=O)c5cc(C6CC6)c(CN6CC[C@H](C(=O)OC)C6)cn5)c4C)c3C)cc2C2CC2)C1 | 1.9 µM |

###

Target: interaction between PD-1 and PD-L1 expressed on cell surfaces (Homo sapiens (Human))
Test: Jurkat reporter gene cellular assay (Jurkat/NF-κB-luc/PD1 cells cocultured with Raji-PD-L1 cells, OKT-3 stimulation)
Assay type: cell-based
Details: NF-κB-luc reporter activation fold, 6 hrs; read-out: Cell Activity EC50
pEC50: −log10 of the molar value.

| compound | pEC50 |
| --- | --- |
| COc1cc(C(=O)Nc2cccc(-c3cccc(NC(=O)c4cc(OC)c(CN[C@H](CO)C(N)=O)cn4)c3C)c2C)ncc1CN[C@H](CO)C(N)=O | 6.39 |
| COc1cc(C(=O)Nc2cccc(-c3cccc(NC(=O)c4cc(OC)c(CNCCO)cn4)c3Cl)c2C)ncc1CNCCO | 7.13 |
| CCOC(=O)CNCc1cnc(C(=O)Nc2cccc(-c3cccc(NC(=O)c4cc(C5CC5)c(CNCC(=O)OCC)cn4)c3C)c2C)cc1C1CC1 | 5.87 |
| Cc1c(NC(=O)c2cc(C3CC3)c(CNC3CC(O)C3)cn2)cccc1-c1cccc(NC(=O)c2cc(C3CC3)c(CN[C@H]3C[C@@H](O)C3)cn2)c1C (stereo partly drawn) | 6.69 |
| Cc1c(NC(=O)c2cc(C3CC3)c(CNCC3(O)CC3)cn2)cccc1-c1cccc(NC(=O)c2cc(C3CC3)c(CNCC3(O)CC3)cn2)c1C | 6.25 |
| Cc1c(NC(=O)c2cc(C3CC3)c(CN[C@H](C(=O)O)[C@@H](C)O)cn2)cccc1-c1cccc(NC(=O)c2cc(C3CC3)c(CN[C@H](C(=O)O)[C@@H](C)O)cn2)c1C | 7.46 |

###

Biological target: interaction between PD-1 and PD-L1 (Homo sapiens (Human), UniProt Q9NZQ7)
Sequence (Q9NZQ7 19-238): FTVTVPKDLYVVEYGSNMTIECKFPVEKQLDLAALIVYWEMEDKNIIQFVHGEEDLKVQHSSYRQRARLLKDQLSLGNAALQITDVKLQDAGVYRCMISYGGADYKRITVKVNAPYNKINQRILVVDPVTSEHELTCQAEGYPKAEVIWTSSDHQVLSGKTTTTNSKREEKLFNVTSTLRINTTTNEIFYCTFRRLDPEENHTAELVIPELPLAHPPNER
Assay: PD1-PDL1 HTRF binding activity test (Cisbio PD-1/PD-L1 binding assay kit)
Details: read-out: PD1-PDL1 HTRF Binding Activity IC50
Protocol: A. PD1-PDL1 HTRF Binding Activity Test The effect of compounds and positive compounds of the examples of the present invention on the interaction between PD-1 and PD-L1 was determined by the PD-1/PD-L1 binding assay kit from Cisbio (#64ICP01PEG or 64ICP01PEH). […] 3. After incubated for 2 hrs at room temperature or overnight at 4° C., plates were read on Envision of Pelkin Elmer; and readings at 665 nm and 620 nm were recorded, and the ratio of the two readings was taken as a reading for each well; […]
pIC50: −log10 of the molar value.
Measured pIC50, listed per entry.

| line.notation | pIC50 |
| --- | --- |
| Cc1c(NC(=O)c2cc(C3CC3)c(CNCCF)cn2)cccc1-c1cccc(NC(=O)c2cc(C3CC3)c(CNCCF)cn2)c1C | 8.30 |
| COc1cc(C(=O)Nc2cccc(-c3cccc(NC(=O)c4cc(OC)c(CN5CCC(C(=O)O)CC5)cn4)c3C)c2C)ncc1CN1CCC(C(=O)O)CC1 | 9.35 |
| Cc1c(NC(=O)c2cc(C3CC3)c(CN[C@@H](C)CO)cn2)cccc1-c1cccc(NC(=O)c2cc(C3CC3)c(CN[C@@H](C)CO)cn2)c1C | 8.84 |

###

Target: interaction between PD-1 and PD-L1 (Homo sapiens (Human), UniProt Q9NZQ7)
Assay: PD1-PDL1 HTRF binding activity test (Cisbio PD-1/PD-L1 binding assay kit)
Settings: read-out: PD1-PDL1 HTRF Binding Activity IC50
pIC50: −log10 of the molar value.

| line.notation | pIC50 |
| --- | --- |
| Cc1cc(C(=O)Nc2cccc(-c3cccc(NC(=O)c4cc(C)c(CN5CC(C)(O)C5)cn4)c3C)c2C)ncc1CN1CC(C)(O)C1 | 9.22 |
| COc1cc(C(=O)Nc2cccc(-c3cccc(NC(=O)c4cc(OC)c(CN5CC[C@@H](OC)C5)cn4)c3C)c2C)ncc1CN1CC[C@@H](OC)C1 | 9.48 |
| Cc1c(NC(=O)c2cc(C3CC3)c(CN3CC[C@@H](O)C3)cn2)cccc1-c1cccc(NC(=O)c2cc(C3CC3)c(CN3CC[C@@H](O)C3)cn2)c1C | 8.82 |
| COc1cc(C(=O)Nc2cccc(-c3cccc(NC(=O)c4cc(OC)c(CNC[C@@H](O)CC(=O)O)cn4)c3C)c2C)ncc1CNC[C@@H](O)CC(=O)O | 9.51 |
| COc1cc(C(=O)Nc2cccc(-c3cccc(NC(=O)c4cc(OC)c(CN5CCOC[C@H]5C(=O)O)cn4)c3C)c2C)ncc1CN1CCOC[C@H]1C(=O)O | 9.60 |
| COc1cc(C(=O)Nc2cccc(-c3cccc(NC(=O)c4cc(OC)c(CN5CC(C)(O)C5)cn4)c3C)c2C)ncc1CN1CC(C)(O)C1 | 9.60 |

###

Target: interaction between PD-1 and PD-L1 (Homo sapiens (Human))
Experiment: PD1-PDL1 HTRF binding activity test (Cisbio PD-1/PD-L1 binding assay kit)
Settings: read-out: PD1-PDL1 HTRF Binding Activity IC50
pIC50: −log10 of the molar value.

| line.notation | pIC50 |
| --- | --- |
| Cc1cc(C(=O)Nc2cccc(-c3cccc(NC(=O)c4cc(C)c(CN5CCOCC5)cn4)c3C)c2C)ncc1CN1CCOCC1 | 8.42 |
| CCOC(=O)CNCc1cnc(C(=O)Nc2cccc(-c3cccc(NC(=O)c4cc(C5CC5)c(CNCC(=O)OCC)cn4)c3C)c2C)cc1C1CC1 | 7.78 |
| COc1cc(C(=O)Nc2cccc(-c3cccc(NC(=O)c4cc(OC)c(CN5CCC(O)CC5)cn4)c3C)c2C)ncc1CN1CCC(O)CC1 | 9.48 |
| Cc1c(NC(=O)c2cc(C3CC3)c(CNCC(=O)O)cn2)cccc1-c1cccc(NC(=O)c2cc(C3CC3)c(CNCC(=O)O)cn2)c1C | 8.94 |
| Cc1c(NC(=O)c2cc(C3CC3)c(CN[C@H](C(=O)O)C(C)C)cn2)cccc1-c1cccc(NC(=O)c2cc(C3CC3)c(CN[C@H](C(=O)O)C(C)C)cn2)c1C | 8.95 |
| COc1cc(C(=O)Nc2cccc(-c3cccc(NC(=O)c4cc(OC)c(CNC[C@H](O)CO)cn4)c3C)c2C)ncc1CNC[C@H](O)CO | 9.19 |

###

Assay: Pharmacokinetic assay in mice, per oral administration
Type: in vivo
Conditions: male, mouse, plasma; PO 10 mg/kg, ICR mice, original compound analyzed
endpoint.name: half-life (h)

| line.notation | measurement.unit | observed.value |
| --- | --- | --- |
| COc1cc(C(=O)Nc2cccc(-c3cccc(NC(=O)c4cc(OC)c(CNCCO)cn4)c3C)c2C)ncc1CNCCO | h | 12.9 |
| COc1cc(C(=O)Nc2cccc(-c3cccc(NC(=O)c4cc(OC)c(CN5CC(C)(O)C5)cn4)c3C)c2C)ncc1CN1CC(C)(O)C1 | h | 10.7 |
| Cc1cc(C(=O)Nc2cccc(-c3cccc(NC(=O)c4cc(C)c(CNCCO)cn4)c3C)c2C)ncc1CNCCO | h | 8.3 |
| Cc1cc(C(=O)Nc2cccc(-c3cccc(NC(=O)c4cc(C)c(CNC(CO)CO)cn4)c3C)c2C)ncc1CNC(CO)CO | h | 3 |
| Cc1c(NC(=O)c2ccc(CNCCO)cn2)cccc1-c1cccc(NC(=O)c2ccc(CNCCO)cn2)c1C | h | 2.4 |
